test.details: Pharmacokinetic screening of selected haloalkyl-phenyl ureas, blood profiles
Format: in vivo
conditions: whole blood
reported.metric: Tmax (h)

# input Find the recorded Tmax belonging to CCC(C)C(=O)N1CCC(NC(=O)Nc2ccc(C(F)(F)F)cc2)CC1 (stereo not shown) and report it.
# output 4

# input Find the recorded Tmax belonging to CCCCS(=O)(=O)N1CCC(NC(=O)Nc2ccc(C(F)(F)F)cc2)CC1 and report it.
# output 1

# input Find the recorded Tmax belonging to O=C(Nc1ccc(C(F)(F)F)cc1)NC1CCN(C(=O)C2CC2)CC1 and report it.
# output 4

# input Find the recorded Tmax belonging to O=C(Nc1ccc(C(F)(F)F)cc1)NC1CCN(S(=O)(=O)C2CC2)CC1 and report it.
# output 4
